biological target: HLA-A*0301 on mild-acid treated EKR cells (human); assay: competition vs FL-reference peptide, EKR cells, 4°C 3 hr
measuredParameter: pIC50
Give bare numbers, as −log10 of the molar value.

// known answers, use as guide
IVYRDGNPY [HPV16 E6 59-67] | 5.68
KVFPCALINK [non-labeled HLA-A*0301 reference peptide] | 6.30
TTLEQQYNK [HPV16 E6 93-101] | 4.78
HLDKKKQRFH [HPV16 E6 peptide HLDKKKQRFH] | 5.72

Next:
Query: pIC50; subject: QQLLRREVY [HPV16 E6 42-50]
4.77
